target_or_system: mouse DLL3 on CHO-K1-mDLL3 cells (mouse) (UniProt O88516)
Sequence (O88516 other isoform, or with tags, fused parts or gaps limits assumed): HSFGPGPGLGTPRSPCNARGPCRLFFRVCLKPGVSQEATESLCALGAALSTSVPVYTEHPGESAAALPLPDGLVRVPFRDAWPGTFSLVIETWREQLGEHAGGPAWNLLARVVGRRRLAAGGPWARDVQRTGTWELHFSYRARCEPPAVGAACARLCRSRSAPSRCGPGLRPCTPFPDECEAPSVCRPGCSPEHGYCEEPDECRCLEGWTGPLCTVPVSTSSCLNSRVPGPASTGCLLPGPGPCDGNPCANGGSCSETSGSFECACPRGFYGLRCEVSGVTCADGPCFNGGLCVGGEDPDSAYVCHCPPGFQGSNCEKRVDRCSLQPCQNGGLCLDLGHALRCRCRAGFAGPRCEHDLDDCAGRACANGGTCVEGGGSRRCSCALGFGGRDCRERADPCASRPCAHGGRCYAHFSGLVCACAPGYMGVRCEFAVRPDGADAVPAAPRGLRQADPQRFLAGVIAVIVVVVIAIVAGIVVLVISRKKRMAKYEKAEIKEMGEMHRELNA
method_description: FACS, CHO-K1-mDLL3 cells, 0.00128 nM antibody
Listed binders paired with reported MFI

[
  {
    "binder": "Hab015VL4VH1a-hFc (scFv, part only; not given: scFv linker and human IgG1 Fc, V domains shown, not shown: another chain or arm of the molecule; a dimerising Fc or GST; small tags and cut ends) VL: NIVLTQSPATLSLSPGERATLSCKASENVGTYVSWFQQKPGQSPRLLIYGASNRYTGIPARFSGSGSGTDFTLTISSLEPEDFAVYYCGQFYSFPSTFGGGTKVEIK VH: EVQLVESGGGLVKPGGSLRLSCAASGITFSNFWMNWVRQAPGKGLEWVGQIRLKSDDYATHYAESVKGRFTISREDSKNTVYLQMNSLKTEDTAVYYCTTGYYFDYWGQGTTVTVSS",
    "MFI": "117 MFI"
  },
  {
    "binder": "Hab014VL1VH2-hFc (scFv, part only; not given: VL-VH linker and human IgG1 Fc, V domains shown, not shown: another chain or arm of the molecule; a dimerising Fc or GST; small tags and cut ends) VL: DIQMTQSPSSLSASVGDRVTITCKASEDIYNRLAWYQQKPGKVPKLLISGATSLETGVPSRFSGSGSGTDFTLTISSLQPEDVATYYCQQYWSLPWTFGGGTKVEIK VH: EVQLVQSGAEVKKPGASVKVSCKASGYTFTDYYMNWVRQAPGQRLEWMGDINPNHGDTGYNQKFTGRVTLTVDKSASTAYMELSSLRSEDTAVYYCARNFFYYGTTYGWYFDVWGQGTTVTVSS",
    "MFI": "109 MFI"
  },
  {
    "binder": "Hab014VL3VH1-hFc (scFv, part only; not given: VL-VH linker and human IgG1 Fc, V domains shown, not shown: another chain or arm of the molecule; a dimerising Fc or GST; small tags and cut ends) VL: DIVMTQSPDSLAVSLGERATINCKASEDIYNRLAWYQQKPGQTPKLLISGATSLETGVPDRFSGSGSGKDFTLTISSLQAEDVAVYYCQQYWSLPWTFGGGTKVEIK VH: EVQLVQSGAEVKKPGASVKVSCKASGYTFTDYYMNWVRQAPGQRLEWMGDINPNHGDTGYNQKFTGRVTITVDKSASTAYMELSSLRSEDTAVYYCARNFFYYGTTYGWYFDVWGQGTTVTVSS",
    "MFI": "103 MFI"
  }
]
